measured-target: T1, TIGIT-mFc (extracellular region of human TIGIT with mIgG1-Fc tag) (human)
T1 construct: A bought TIGIT-mFc (Acro Biosystems TIT-H5253) is used for immunization; also called recombinant humanized TIGIT-mFc
T1 chain: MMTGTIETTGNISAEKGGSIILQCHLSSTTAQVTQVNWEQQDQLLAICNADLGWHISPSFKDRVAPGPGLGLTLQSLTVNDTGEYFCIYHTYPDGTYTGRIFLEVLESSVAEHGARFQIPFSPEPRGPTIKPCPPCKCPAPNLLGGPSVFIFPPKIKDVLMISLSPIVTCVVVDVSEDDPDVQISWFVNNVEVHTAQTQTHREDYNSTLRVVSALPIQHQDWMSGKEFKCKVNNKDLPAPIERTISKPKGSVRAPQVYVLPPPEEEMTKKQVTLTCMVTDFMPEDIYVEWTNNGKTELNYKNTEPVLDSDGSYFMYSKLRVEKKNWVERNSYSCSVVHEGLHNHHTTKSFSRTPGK
assay-overview: ELISA, blocking of TIGIT-mFc binding to coated CD155-hFc (competitor CD155-hFc)
Recorded measurements of IC50, one per entry

>  <binder>
SHS006-17CHI (antibody, V domains shown, Chimeric antibody with human heavy and light chain constant regions) VH: QVTLKESGPGILQPSQTLSLTCTFSGFSLRTYGLGVGWIRQLSGKGLEWLANIWWDDDEYYNPSLKNRLTISKDTSNNQAFLKITNVDTADTATYYCARIARPHYYWDGRYILDVWGQGASVTVSS VL: DIMMTQSPLSVAVTPGESASISCRSSKSLLHSNGITYLSWYLQRPEKSPQLLIFQISNLASGVSDRFSGSGSGTDFTLIISKVETEDVGIYYCMQFLEVPYTFGAGTKLELK

>  <IC50>
1.03 nM

$$$$

Now take the following binder into account.
Record SHS006-T-Hu17-31 (antibody, IgG4, V domains shown, Humanized) VH: QVTLKESGPVLVKPTETLTLTCTFSGFSLRTYGLGVGWIRQPPGKALEWLANIWWDDDEYYNPSLKNRLTISKDTSKSQAVLTMTNMDPVDTATYYCARIARPHYYWDGRYILDVWGQGTTVTVSS VL: DIVMTQSPLSLPVTPGEPASISCRSSKSLLHSNGITYLSWYLQKPGQSPQLLIYQISNLASGVPDRFSGSGSGTDFTLKISRVEAEDVGVYYCMQFLEVPYTFGQGTKLEIK . Reported IC50: 0.954 nM
